Where do the numbers come from? From paper PMC4434323.

- test-target: ZK337.2 (ZK337.2) (Caenorhabditis elegans) (UniProt O46016)
- Sequence: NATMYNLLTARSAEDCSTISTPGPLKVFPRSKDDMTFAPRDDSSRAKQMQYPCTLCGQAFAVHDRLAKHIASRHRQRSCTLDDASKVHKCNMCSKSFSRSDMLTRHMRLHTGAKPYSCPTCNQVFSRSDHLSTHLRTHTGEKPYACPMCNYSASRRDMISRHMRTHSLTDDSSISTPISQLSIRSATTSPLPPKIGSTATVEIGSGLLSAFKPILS
assay-endpoint: binding signal (PBM E-score (-0.5 to 0.5))

sequence-data | reported
CACCCCCA (double strand) [8-mer CACCCCCA] | 0.482
CGCCCCCA (double strand) [8-mer CGCCCCCA] | 0.494
CCACCCCC (double strand) [8-mer CCACCCCC] | 0.485
CCCACGCA (double strand) [8-mer CCCACGCA] | 0.488
